The measured values listed here are drawn from the supplement of paper PMC9170038.

Please go through the items and note down their apparent KD of MS2 coat protein.
System: MS2 coat protein
ASSAY_COMMENT: apparent KD of MS2 coat protein; designed switch direction (-1 OFF switch, 1 ON switch): -1; higher = weaker reporter binding
TEST_PARAMETERS: input ligand: FMN 200 uM
Reply with just the number (in nM).

apparent KD of MS2 coat protein for UAUUUACAUGAGGAUCACCCAUGUCAGGAUAUGCGUCUAUCGUCGAAAGACGAUAGUCGCAGAAGGGACAAUAU [LRO-Excl01-22 mod derived from EliFisker 4.24] (Eterna round: R97, puzzle: Exclusion 1) ?
100

Here is the next sequence: CCGGCGGUAGGAUAUACAAUUGUAAAAGGCAGGUGGUGUCAACAUGAGGAUCACCCAUGUAGAAGGACCUUAAA [EX2 C.26] (Eterna round: R97, puzzle: Exclusion 2)
38.4

Here is the next sequence: CGAUGCAAAGUAAGGAUAUGCUUCCGGAAACGGAGGCAGAAGGUACAUGAGGAUCACCCAUGUUAAAAGCAUCG [Explosion 3 - Jieux - Brourd's mod of Exclusion 4] (Eterna round: R97, puzzle: Brourd's mod of Exclusion 4)
16.3

Here is the next sequence: CGGGCCCGGGCAGGAUAUGCGGCGGCCCGGGCCGGUGGGCCCGGGCCGACAUGAGGAUCACCCAUGUAGAAGGGCCCGGGCCCG [low energy, MS2 in another position, A 14%] (Eterna round: R96, puzzle: Exclusion NG 2)
15.7

Here is the next sequence: GUAUUUUGAGGAUAUACAUGAGGAUCACCCAUGUGUCGUAGCGCCAGCCUUAAUACGUGUAGAAGGCAGAAUGU [Eternabot (L1) Solution 75] (Eterna round: R97, puzzle: Exclusion 3)
20

Here is the next sequence: AAUACAAGCUAUUGAUCCCACAUGAGGAUCACCCAUGUAUAUGCCCGUGACACGUGCAUGACGAUAGCUCGUCUUAU [Sensor-V1 #60] (Eterna round: R97, puzzle: Sensor, turn-off variant 1)
85.8

Here is the next sequence: AUUAUAAAUGUAGGAUAUCUGCACGUGUAGUGCAGAGAAGGACAUGAGGAUCACCCAUGUAGAUCAAUAAUAAUUAAUUUAAUU [ENG1/5-B3] (Eterna round: R96, puzzle: Exclusion NG 1)
223

Here is the next sequence: UAUUAGCAAGCAAGAUCCUACAUGAGGAUCACCCAUGUGCUCGUCUUAAGCUCAGAAUUACUGAGCGCUCGUCUUAU [Winner reversed engineered 23] (Eterna round: R97, puzzle: Sensor, turn-off variant 1)
468

Here is the next sequence: AGCGAAGAGACAGGAUAUGAGAAUAGAUAGAACUCAGAAGGGUCACAUGAGGAUCACCCAUGUAAAGUCUUGAGGCUGCGUGGU [Prohibition 9 - Jieux - Exclusion NG 1] (Eterna round: R96, puzzle: Exclusion NG 1)
141

----------
Tested on: K4 kissing-loop RNA reporter;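 further: bound reporter read as fluorescence of individual clusters on recovered sequencing chips by microscopy, with normalized cluster intensities fitted with a binding model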
ASSAY_COMMENT: apparent KD of K4 kissing-loop reporter; higher = weaker reporter binding
TEST_PARAMETERS: Eterna round: R107; input ligand: none
PROPERTY_NAME: apparent KD of K4 kissing-loop reporter (nM)
Reply with just the number (in nM).

Give K4 kissing-loop RNA reporter apparent KD of K4 kissing-loop reporter for UGAUAGGACAGAAGGAGCGGGCUAGUCAAAGACUAGCAAACGUUAAUAACAGGAGUGAUGUUCCAGGUAGGUCGCUGUCCUAUCU [ArgBX 25 #SwitchBubble #StaticStem]
143

Here is the next sequence: UGCACGGGCUCGGCCGCCACUCCCGCGGGUCGGAAGGUCCGCUACUGAGUGAUGUUCGGUUGGAGGAGGACCGGGAGCCCGUGCA [#2 Exclusion - Tryptophan B Attempt #26 (HarryS)]
104

Here is the next sequence: GAUCUGAACGAAAGUUCGGAUCAGUCCGAUACCAGUAUGGAUUCAUACCCUUGGCAGCGGAAAUCUGCUAUGGAGUGAUGUUCCU [Theophylline A K4 13]
413

Here is the next sequence: AAGGUAUCACCACAACAUCACUAAGGUGAUACCAGCAUCGAAAGAUGCCCUUGGCAGCACCAACUUGCAGUGAUGUUGCAAGUAA [(T)'-(H)'-(T1)-(T2)-(H1)-(H2)_Design9]
365

Here is the next sequence: AAGUGAUGUUGUAGUGAUGUUGUGAUGUUGCAGGAUAUAUAGUGAUGUAGAAGGGUAUGUGCAGUUUUCUUUUUUGAGUGUUGAU [aavamullin]
57.1
